experiment: Volume of distribution in Sprague-Dawley rat at 1 mg/kg, iv; format: ADME, organism-based; design: dose 1 mg/kg, route intravenous; details: in vivo
TEST READOUT: Vd (L/kg)

[[record]]
sample_smiles = "Cc1cc(Nc2nc(Sc3ccc(NC(=O)CN4C[C@H](OC(C)(C)C)C[C@H]4CO)cc3)nn3cccc23)n[nH]1"
units = "L/kg"
readout_value = 9.77

[[record]]
sample_smiles = "Cc1cc(Nc2nc(Sc3ccc(NC(=O)C4CC4)cc3)nn3cc(NC(=O)N4CCN(C)CC4)cc23)n[nH]1"
units = "L/kg"
readout_value = 5.86

[[record]]
sample_smiles = "Cc1cc(Nc2nc(Sc3ccc(NC(=O)CN4C[C@H](OC(C)(C)C)[C@@H](O)C4)cc3)nn3cccc23)n[nH]1"
units = "L/kg"
readout_value = 18.3

[[record]]
sample_smiles = "Cc1cc(Nc2nc(Sc3ccc(NC(=O)C4CC4)cc3)nn3cccc23)n[nH]1"
units = "L/kg"
readout_value = 2.15

[[record]]
sample_smiles = "Cc1cc(Nc2nc(Sc3ccc(NC(=O)CN4C[C@H](Oc5ccc(F)cc5)[C@@H](O)C4)cc3)nn3cccc23)n[nH]1"
units = "L/kg"
readout_value = 2.93

